Reported pKd values for the following binders.
Molecular target: T1, recombinant cyno BCMA, in house material (cyno, UniProt A0A2K5UD97 4-52)
T1 construct: also called Cyno in house BCMA
T1 sequence (A0A2K5UD97 entry or part of it): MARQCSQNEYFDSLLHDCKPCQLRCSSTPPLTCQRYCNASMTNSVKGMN
Assay: ProteOn SPR run 1, antibody captured on Protein A, 25C
Please report pKd as the negative decimal logarithm of the molar concentration, giving only the number.

Worked examples follow.
>>> result_value("CA8 humanised J5M1 (antibody, human IgG1, kappa, V domains shown, Humanised CA8, heavy chain J5 with light chain M1, human IgG1 kappa; also called CA8 J5M1) VH: QVQLVQSGAEVKKPGSSVKVSCKGSGYTFTNYWMHWVRQAPGQGLEWMGATYRGHSDTYYNQKFKGRVTITADTSTSTAYMELSSLRSEDTAVYYCTRGAIYDGYDVLDNWGQGTLVTVSS VL: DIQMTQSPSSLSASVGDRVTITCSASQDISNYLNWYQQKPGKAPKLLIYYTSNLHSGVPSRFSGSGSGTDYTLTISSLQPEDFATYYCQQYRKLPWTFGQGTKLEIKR")
9.95
>>> result_value("CA8 chimera antibody (human chimeric CA8) (antibody, V domains shown, also called Chimera CA8; CA8 chimeric antibody) VH: EVQLQQSGAVLARPGASVKMSCKGSGYTFTNYWMHWVKQRPGQGLEWIGATYRGHSDTYYNQKFKGKAKLTAVTSTSTAYMELSSLTNEDSAVYYCTRGAIYNGYDVLDNWGQGTLVTVSS VL: DIQLTQTTSSLSASLGDRVTISCSASQDISNYLNWYQQKPDGTVELVIYYTSNLHSGVPSRFSGSGSGTDYSLTIGYLEPEDVATYYCQQYRKLPWTFGGGSKLEIKR")
9.34
>>> result_value("CA8 humanised J3M2 (antibody, human IgG1, kappa, V domains shown, Humanised CA8, heavy chain J3 with light chain M2, human IgG1 kappa; also called CA8 J3M2) VH: QVQLVQSGAEVKKPGSSVKVSCKGSGYTFTNYWMHWVRQAPGQGLEWMGATYRGHSDTYYNQKFKGRVTITADTSTSTAYMELSSLRSEDTAVYYCTRGAIYNGYDVLDNWGQGTLVTVSS VL: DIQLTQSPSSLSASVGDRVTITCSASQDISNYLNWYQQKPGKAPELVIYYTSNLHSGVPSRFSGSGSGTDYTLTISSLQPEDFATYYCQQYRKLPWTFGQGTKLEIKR")
9.80

Turning now to a further binder:
Q: // query pKd value for entry CA8 humanised J0M1 (antibody, human IgG1, kappa, V domains shown, Humanised CA8, heavy chain J0 with light chain M1, human IgG1 kappa; also called CA8 J0M1) VH: QVQLVQSGAEVKKPGSSVKVSCKASGGTFSNYWMHWVRQAPGQGLEWMGATYRGHSDTYYNQKFKGRVTITADKSTSTAYMELSSLRSEDTAVYYCARGAIYNGYDVLDNWGQGTLVTVSS VL: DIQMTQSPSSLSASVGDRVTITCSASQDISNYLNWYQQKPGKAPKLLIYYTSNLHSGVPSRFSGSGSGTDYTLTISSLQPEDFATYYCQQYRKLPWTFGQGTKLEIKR
A: 9.30

Reference for the values: patent US20230137032A1
